Tested on: P12-Ichikawa
Test: cell viability relative to DMSO control; higher = less cytotoxic
Details: HPLM + 10% dialyzed FBS; 48 h; 15.4 µM
quantity_measured: cell viability (%)
One number for each entry, in %.

[[record]]
smiles_str = "CN1CCN(CCOc2cc(OC3CCOCC3)c3c(Nc4c(Cl)ccc5c4OCO5)ncnc3c2)CC1"
tested_target = "P12-Ichikawa"
quantity_measured = "cell viability"
observed = 32.3

[[record]]
smiles_str = "CC(C)[C@H](N)C(=O)OCCOC[N]1C=NC2=C1\\N=C(N)/NC2=O"
tested_target = "P12-Ichikawa"
quantity_measured = "cell viability"
observed = 123


Okay, now this compound:
The compound listed as CC(C)(C)[C@H](NC(=O)c1ccc(N)c(Cl)c1)C(=O)N1CCC[C@H]1C(=O)N[C@H](C#N)CC(=O)O shows cell viability equal to 14.4

* * *

Provide the recorded cell viability for the entries that follow.
System: SEM cells
Assay: cell viability relative to DMSO control; higher = less cytotoxic
Conditions: RPMI 5 mM glucose + 10% FBS; 48 h; 0.000781 µM
Numbers only, in %.

Some solved cases for reference:
[[record]]
molecule = "OCc1ccc(-c2ccc(-c3ccc(CO)s3)o2)s1"
quantity_measured = "cell viability"
observed = 87.3

[[record]]
molecule = "NC/1=N/C(=O)N(/C=N1)[C@@H]2O[C@H](CO)[C@@H](O)[C@H]2O"
quantity_measured = "cell viability"
observed = 95.7

[[record]]
molecule = "CCOc1ccc(Cc2cc([C@@H]3O[C@H](CO)[C@@H](O)[C@H](O)[C@H]3O)ccc2Cl)cc1"
quantity_measured = "cell viability"
observed = 102

[[record]]
molecule = "COc1ncc(-c2ccc3c(Nc4cc(Oc5cc(F)cc(F)c5)cc(C(=O)O)c4)c([S+](=O)([O-])NC4CC4)cnc3c2)c(OC)n1"
quantity_measured = "cell viability"
observed = 135

[[record]]
molecule = "CCOC(=O)\\C1=C\\[C@@H](OC(CC)CC)[C@H](NC(C)=O)[C@@H](N)C1"
quantity_measured = "cell viability"
observed = 77.6

[[record]]
molecule = "CNC(=O)N1\\N=C(\\C2=CC=C(N)C=C2)C3=CC4=C(OCO4)C=C3CC1C (stereo not drawn)"
quantity_measured = "cell viability"
observed = 120

[[record]]
molecule = "Cc1ncc([N+](=O)[O-])n1CC(C)O (stereo not drawn)"
quantity_measured = "cell viability"
observed = 78.9

[[record]]
molecule = "O=C(Nc1cccnn1)N1CCC(=Cc2cccc(Oc3ccc(C(F)(F)F)cn3)c2)CC1"
quantity_measured = "cell viability"
observed = 104


Give cell viability for all molecules that follow.
1. OC(CN1CCN(c2cccc(Cl)c2)CC1)C(c1ccccc1)c1ccccc1 (stereo not drawn)
2. CC(COc1ccccc1)N(CCCl)Cc1ccccc1 (stereo not drawn)

output:
[101, 101]

Give cell viability for all molecules that follow.
1. CNC(=O)Nc1ccc(-c2nc(N3CC4CCC(C3)O4)c3cnn(C4CCC5(CC4)OCCO5)c3n2)cc1
2. CN1CCN(CCOc2cc(OC3CCOCC3)c3c(Nc4c(Cl)ccc5c4OCO5)ncnc3c2)CC1
3. CN1CCN(C(=O)O[C@H]2c3nccnc3C(=O)N2c2ccc(Cl)cn2)CC1

output:
[76.6, 121, 101]

* * *

Provide the recorded cell viability for the entries that follow.
Tested on: NOMO1
Assay: cell viability relative to DMSO control; higher = less cytotoxic
Conditions: RPMI 5 mM glucose + 10% FBS; 48 h; 0.0211 µM
One number for each entry, in %.

Some solved cases for reference:
[[record]]
compound = "Cc1nc(Nc2n[nH]c3c2CN(C(=O)N[C@H](CN(C)C)c2ccccc2)C3(C)C)c2sccc2n1"
observed = 82.6

[[record]]
compound = "CN(C)CCN1C(=O)c2cccc3cc(N)cc(c23)C1=O"
observed = 108

[[record]]
compound = "Nc1ncnc2c1nc(Cl)n2[C@@H]1O[C@H](CO)[C@@H](O)[C@H]1O"
observed = 120

[[record]]
compound = "O=c1[nH]c(=O)n(C2CCCO2)cc1F (stereo not drawn)"
observed = 116

[[record]]
compound = "COc1ccc2cc1Oc1ccc(cc1)C[C@H]1c3cc(c(OC)cc3CCN1C)Oc1c(OC)c(OC)cc3c1[C@H](C2)N(C)CC3"
observed = 111


Give cell viability for all compounds that follow.
1. COc1cc(CNC(=O)CCCC/C=C/C(C)C)ccc1O
2. C1CCN2C[C@H]3C[C@H](\C=C/4CCCN[C@@H]34)[C@H]2C1
3. CO/N=C(\C(=O)N[C@@H]1C(=O)N2C(C(=O)OCOC(=O)C(C)(C)C)=C(/C=C\c3scnc3C)CS[C@H]12)c1csc(N)n1

output:
1: 115; 2: 104; 3: 98.9

* * *

Tested on: NOMO1
Experiment: cell viability relative to DMSO control; higher = less cytotoxic
Conditions: HPLM + 10% dialyzed FBS; 48 h; 46.1 µM
quantity_measured: cell viability

[[record]]
compound = "OC1=CC2=C(C(=C1)O)C(=O)\\C(=C(/O2)C3=CC(=C(O)C=C3)O)O"
quantity_measured = "cell viability"
observed = "109%"

[[record]]
compound = "CC(NCCc1ccc(O)cc1)C(O)c1ccc(O)cc1 (centres undefined)"
quantity_measured = "cell viability"
observed = "80%"

[[record]]
compound = "Nc1ncnc2c1c(-c1cccc(OCc3ccccc3)c1)cn2C1CC(CN2CCCC2)C1 (centres undefined)"
quantity_measured = "cell viability"
observed = "36.2%"


Okay, now this compound:
The compound listed as CO/N=C(/C(=O)N[C@@H]1C(=O)N2C(C(=O)O)=C(CSC(=O)c3ccco3)CS[C@H]12)c1csc(N)n1 shows cell viability equal to 48.8%

* * *

Provide the recorded cell viability for the entries that follow.
System: P12-Ichikawa
Assay: cell viability relative to DMSO control; higher = less cytotoxic
Conditions: HPLM + 10% dialyzed FBS; 48 h; 0.19 µM
Numbers only, in %.

[[record]]
molecule = "N[S+](=O)([O-])OC[C@@H]1C[C@@H](n2ccc3c(N[C@H]4CCc5ccccc54)ncnc32)C[C@@H]1O"
tested_target = "P12-Ichikawa"
u = "%"
observed = 118


Give cell viability for all molecules that follow.
1. OC1=CC2=C(C(=C1)O)C(=O)\C(=C(/O2)C3=CC(=C(O)C=C3)O)O
2. CC(C)(O)c1cc2nc(-c3cnc(N)nc3)nc(N3CCOCC3)c2s1
3. C1CCN2C[C@H]3C[C@H](\C=C/4CCCN[C@@H]34)[C@H]2C1

output:
1: 111; 2: 111; 3: 110

* * *

System: P12-Ichikawa
Experiment: cell viability relative to DMSO control; higher = less cytotoxic
Conditions: HPLM + 10% dialyzed FBS; 48 h; 46.1 µM
Provide the recorded cell viability for the entries that follow.
Numbers only, in %.

[[record]]
smiles_str = "C[C@H]1O[C@H](C[C@H](O)[C@@H]1O)O[C@H]2[C@@H](O)C[C@@H](O[C@@H]2C)O[C@H]3[C@@H](O)C[C@@H](O[C@@H]3C)O[C@H]4CC[C@@]5(C)[C@H](CC[C@@H]6[C@@H]5C[C@@H](O)[C@]7(C)[C@H](CC[C@]67O)C/8=C/C(=O)OC8)C4"
quantity_measured = "cell viability"
observed = 17.2

[[record]]
smiles_str = "CN1CCN(CCOc2cc(OC3CCOCC3)c3c(Nc4c(Cl)ccc5c4OCO5)ncnc3c2)CC1"
quantity_measured = "cell viability"
observed = 20


Okay, now this compound:
The compound listed as COc1cc(CNC(=O)CCCC/C=C/C(C)C)ccc1O shows cell viability equal to 14.1

* * *

Provide the recorded cell viability for the entries that follow.
System: NOMO1
Assay: cell viability relative to DMSO control; higher = less cytotoxic
Conditions: HPLM + 10% dialyzed FBS; 48 h; 0.569 µM
Numbers only, in %.

Some solved cases for reference:
[[record]]
compound = "CC(NCCc1ccc(O)cc1)C(O)c1ccc(O)cc1 (stereo not given)"
u = "%"
observed = 127

[[record]]
compound = "N#C/C(C(=O)c1ccc(Cl)cc1Cl)=C1/NC(=O)c2ccc(Cl)cc2N1"
u = "%"
observed = 114

[[record]]
compound = "CCN1CCN(C(=O)Cc2ccc(Nc3ncc(F)c(Nc4ccc(C(=O)Nc5ccccc5Cl)cc4)n3)cc2)CC1"
u = "%"
observed = 109

[[record]]
compound = "CNC(=O)Nc1ccc(-c2nc(N3CC4CCC(C3)O4)c3cnn(C4CCC5(CC4)OCCO5)c3n2)cc1"
u = "%"
observed = 70.4

[[record]]
compound = "COc1cccc2c1[C@]13CCN(CC4CC4)[C@H](C2)[C@]1(OC)CCC(=O)C3"
u = "%"
observed = 116


Give cell viability for all compounds that follow.
1. Cc1cccc(/C=N/Nc2cc(N3CCOCC3)nc(OCCc3ccccn3)n2)c1
2. Cc1nc(Nc2n[nH]c3c2CN(C(=O)N[C@H](CN(C)C)c2ccccc2)C3(C)C)c2sccc2n1

output:
94.5
54.3

Give cell viability for all compounds that follow.
1. Cc1noc(-c2ccc(CSCCC(=O)O)cc2)c1NC(=O)OC(C)c1ccccc1Cl (stereo not given)
2. N#C/N=C(\NCCCCCCOc1ccc(Cl)cc1)Nc1ccncc1
3. O=[S+]([O-])(c1cccc2cnccc12)N1CCCNCC1

output:
[95.6, 9.75, 139]
